target: Aldo-keto reductase family 1 member B1 (Bos taurus) (UniProt P16116); experiment: Inhibition of aldose reductase activity in a partially purified bovine lens preparation at 10e-7 M

| compound | resultUnit | inhibition |
| --- | --- | --- |
| CCCCN1C(=O)c2ccccc2C2(CC(=O)NC2=O)C1=O (stereo not given) | % | 17 |
| CN1C(=O)c2ccc(Br)cc2C2(CC(=O)NC2=O)C1=O (stereo not given) | % | 85 |
| Cc1ccc2c(c1)C1(CC(=O)NC1=O)C(=O)N(C)C2=O (stereo not given) | % | 65 |
| CN1C(=O)c2ccc([N+](=O)[O-])cc2C2(CC(=O)NC2=O)C1=O (stereo not given) | % | 71 |
| CCN1C(=O)c2ccccc2C2(CC(=O)NC2=O)C1=O (stereo not given) | % | 27 |
